Quick reference: pIC50 of the listed items.
Target: human endothelial constitutive NOS (hecNOS) (Homo sapiens, UniProt P29474)
Assay: Citrulline assay for nitric oxide synthase, hecNOS
Settings: recombinant enzyme, 30 μM L-arginine, calmodulin; averages across all experiments and all lots
Where a name gives a salt, the structure may show the parent alone.
// returns pIC50 (minus log10 of molar concentration), number only

Give recorded pIC50 with human endothelial constitutive NOS (hecNOS) (Homo sapiens, UniProt P29474) for the following molecule: CC(=N)NC[C@H](C)SC[C@](C)(N)C(=O)O [Example 4, dihydrochloride] 2.96

Give recorded pIC50 with human endothelial constitutive NOS (hecNOS) (Homo sapiens, UniProt P29474) for the following molecule: CC[C@](N)(CSCCNC(C)=N)C(=O)O [Example 7, dihydrochloride] 4.11

Give recorded pIC50 with human endothelial constitutive NOS (hecNOS) (Homo sapiens, UniProt P29474) for the following molecule: CC(=N)NCCS(=O)(=O)C[C@](C)(N)C(=O)O [Example 19, dihydrochloride] 2.97

Give recorded pIC50 with human endothelial constitutive NOS (hecNOS) (Homo sapiens, UniProt P29474) for the following molecule: CC(=N)NCCSC[C@](C)(N)C(=O)O [Example 1, dihydrochloride] 4.11

Give recorded pIC50 with human endothelial constitutive NOS (hecNOS) (Homo sapiens, UniProt P29474) for the following molecule: CC(=N)NCCSC[C@](N)(C(=O)O)C(C)C [Example 11, dihydrochloride] 4.59

Give recorded pIC50 with human endothelial constitutive NOS (hecNOS) (Homo sapiens, UniProt P29474) for the following molecule: CC(=N)NC[C@@H](C)SC[C@](C)(N)C(=O)O [Example 3, dihydrochloride] 3.58

Give recorded pIC50 with human endothelial constitutive NOS (hecNOS) (Homo sapiens, UniProt P29474) for the following molecule: COC[C@](N)(CSCCNC(C)=N)C(=O)O [Example 2, dihydrochloride] 3.52

###

Target: Human inducible NOS (hiNOS) (Homo sapiens, UniProt P35228)
Sequence (P35228 whole entry): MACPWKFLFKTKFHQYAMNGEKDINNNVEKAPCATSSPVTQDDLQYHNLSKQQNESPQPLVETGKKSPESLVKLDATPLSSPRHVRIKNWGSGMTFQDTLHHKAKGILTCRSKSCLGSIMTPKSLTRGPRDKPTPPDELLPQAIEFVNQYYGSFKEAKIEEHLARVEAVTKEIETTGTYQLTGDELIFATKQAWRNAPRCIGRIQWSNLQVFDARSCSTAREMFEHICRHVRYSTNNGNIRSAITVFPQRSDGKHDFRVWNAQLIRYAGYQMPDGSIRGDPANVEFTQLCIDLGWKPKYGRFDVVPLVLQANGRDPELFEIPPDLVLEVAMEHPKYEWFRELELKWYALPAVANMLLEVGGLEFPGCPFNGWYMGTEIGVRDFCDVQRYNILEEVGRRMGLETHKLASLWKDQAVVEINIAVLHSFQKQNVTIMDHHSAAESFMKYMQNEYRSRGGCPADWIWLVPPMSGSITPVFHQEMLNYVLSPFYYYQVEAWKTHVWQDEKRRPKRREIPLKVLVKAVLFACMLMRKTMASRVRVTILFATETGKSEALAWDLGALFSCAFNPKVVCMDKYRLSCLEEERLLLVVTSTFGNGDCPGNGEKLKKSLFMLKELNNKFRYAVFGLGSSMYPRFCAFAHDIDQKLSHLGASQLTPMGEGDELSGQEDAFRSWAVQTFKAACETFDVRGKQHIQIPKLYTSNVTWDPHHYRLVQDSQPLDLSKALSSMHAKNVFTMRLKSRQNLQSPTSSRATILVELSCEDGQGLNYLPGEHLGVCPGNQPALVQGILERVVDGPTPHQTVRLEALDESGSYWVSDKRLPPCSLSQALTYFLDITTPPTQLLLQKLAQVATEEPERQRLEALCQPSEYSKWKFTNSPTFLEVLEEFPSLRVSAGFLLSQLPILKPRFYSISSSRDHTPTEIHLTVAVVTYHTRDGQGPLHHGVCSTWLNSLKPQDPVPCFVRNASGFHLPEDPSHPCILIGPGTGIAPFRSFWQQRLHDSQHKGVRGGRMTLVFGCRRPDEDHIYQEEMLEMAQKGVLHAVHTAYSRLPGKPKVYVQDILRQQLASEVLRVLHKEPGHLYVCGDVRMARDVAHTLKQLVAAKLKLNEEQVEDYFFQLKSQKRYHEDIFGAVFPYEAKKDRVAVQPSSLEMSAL
Assay: Citrulline assay for nitric oxide synthase, hiNOS
Conditions: recombinant enzyme, 30 μM L-arginine; averages across all experiments and all lots
Protocol: Nitric oxide synthase (NOS) activity can be measured by monitoring the conversion of L-[2,3-^3H]-arginine to L-[2,3-^3H]-citrulline (Bredt and Snyder, Proc. Natl. Acad. Sci. U.S.A., 87, 682-685, 1990 and Moore et al, J. Med. Chem. 39, 669-672, 1996). […] After mixing the resin is allowed to settle and L-[2,3-^3H]-Citrulline formation is determined by counting aliquots of the supernatant with a liquid scintillation counter. […]
pIC50: −log10 of the molar value. Counter-ions that a name gives are not always drawn.
Quick rule: pIC50 of at least 5 means rule met, below that means rule not met.

Illustrative cases are given below, each with its answer.
CC(=N)NCCSC[C@](C)(N)C(=O)O [Example 1, dihydrochloride]; rule met
CC(=N)NC[C@@H](C)SC[C@](C)(N)C(=O)O [Example 3, dihydrochloride]; rule not met

Is pIC50 for CC(=N)NC[C@H](C)SC[C@](C)(N)C(=O)O [Example 4, dihydrochloride] at or above 5? rule not met

Is pIC50 for COC[C@](N)(CSCCNC(C)=N)C(=O)O [Example 2, dihydrochloride] at or above 5? rule met

###

Target: Human inducible NOS (hiNOS) (Homo sapiens)
Assay: Citrulline assay for nitric oxide synthase, hiNOS
Details: recombinant enzyme, 30 μM L-arginine; averages across all experiments and all lots
Structures can show the parent of a compound that is named as a salt.
observationType: IC50 (µM)
Express the result in µM but write the number alone.

# example entries with known answers
CC(=N)NCCS(=O)(=O)C[C@](C)(N)C(=O)O [Example 19, dihydrochloride]; 12
CC(=N)NCCSC[C@](N)(C(=O)O)C(C)C [Example 11, dihydrochloride]; 0.9
CC(=N)NCC[S+]([O-])C[C@](C)(N)C(=O)O (mixture of isomers) [Example 18, dihydrochloride]; 12

Using the record for CC[C@](N)(CSCCNC(C)=N)C(=O)O [Example 7, dihydrochloride] , report its IC50. 3.4

###

Tested on: nitrite production in human cartilage explants induced with recombinant human IL-1β
Experiment: Human Cartilage Explant Assay
Format: cell-based
Settings: inhibition of nitrite production, IL-1β-stimulated explants, averages across all experiments and all lots
Counter-ions that a name gives are not always drawn.
observationType: IC50 (nM)
Express the result in nM but write the number alone.

CC(=N)NCCSCC(C)(N)C(=O)O (centres unmarked); 700

As a next step, examine the molecule that follows.
Using the record for CC(=N)NCCSC[C@](C)(N)C(=O)O [Example 1, dihydrochloride] , report its IC50. 700
